# experiment.notes: Study #2 Phase 1: pharmacokinetics after single IV and single/multiple oral doses of Compound 1, absolute oral bioavailability;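 further: phase 1 study design: one IV dose, then escalating single oral doses, fed versus fasted single oral dosing, and once-daily oral dosing over 14 days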
# condition.label: human, plasma, oral, 1000 mg, Cmax, Day 14, Cohort 3, 1000 mg Tablets QD × 14 Days, fed, geometric mean
property: Cmax (ng/mL)

>>> df
                            chemical_smiles  endpoint_value
0  Nc1ncccc1-c1cc(Cc2ccc(COc3ccccn3)cc2)no1           21300

----------
# experiment.notes: Study #1 Phase 1: plasma and urine pharmacokinetics of Compound 1 and Compound 1A after IV infusion of Compound 1 (SAD, MAD, loading regimen)
# condition.label: both, human, plasma, 600 mg, Tmax, Cohort 10: Compound 1 600 mg/3 hr IV QD × 14 days, Day 7, median
property: Tmax (h)

In [3]: df
Out[3]:
                            chemical_smiles  property  endpoint_value
0  Nc1ncccc1-c1cc(Cc2ccc(COc3ccccn3)cc2)no1      Tmax            3.03
